system-tested: MPO (Homo sapiens, UniProt P05164)
Construct: purchased Abnova, Taiwan
Sequence (P05164 49-745): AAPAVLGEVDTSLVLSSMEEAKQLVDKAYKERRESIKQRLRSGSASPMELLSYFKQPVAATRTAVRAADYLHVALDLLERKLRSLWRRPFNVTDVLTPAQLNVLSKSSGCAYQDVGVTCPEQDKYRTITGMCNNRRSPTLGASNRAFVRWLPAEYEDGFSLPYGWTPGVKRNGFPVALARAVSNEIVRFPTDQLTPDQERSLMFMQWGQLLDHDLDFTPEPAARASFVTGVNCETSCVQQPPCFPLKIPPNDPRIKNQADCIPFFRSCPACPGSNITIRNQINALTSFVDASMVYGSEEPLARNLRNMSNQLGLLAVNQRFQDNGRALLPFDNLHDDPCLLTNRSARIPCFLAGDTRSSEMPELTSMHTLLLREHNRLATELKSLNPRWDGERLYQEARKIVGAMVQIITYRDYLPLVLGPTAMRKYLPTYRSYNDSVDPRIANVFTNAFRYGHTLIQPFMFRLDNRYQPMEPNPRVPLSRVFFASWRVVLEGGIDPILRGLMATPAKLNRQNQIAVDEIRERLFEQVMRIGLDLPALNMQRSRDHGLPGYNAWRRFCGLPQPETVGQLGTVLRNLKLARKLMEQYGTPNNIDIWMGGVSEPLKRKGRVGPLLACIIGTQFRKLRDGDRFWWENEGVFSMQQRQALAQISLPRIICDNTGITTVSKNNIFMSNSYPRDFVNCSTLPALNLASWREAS
protocol-text: MPO inhibitor screening assay kit, peroxidation assay
Format: biochemical
assay-conditions: ADHP substrate, synthesized peptides
Protocol: The inhibitory effect of peptides on MPO was estimated using an MPO inhibitor screening assay kit (Abnova, Taiwan), which was used to assess in both the peroxidation and chlorination activities of MPO. Peroxidation assay utilizes the peroxidase component of MPO. During the reaction, hydrogen peroxide reacts with 10-acetyl-3,7-dihydroxyphenoxazine (ADHP) to yield resorufin, a highly fluorescent compound. […] The MPO inhibitory activity was determined according to the kit instructions.
pIC50: −log10 of the molar value. Where no end group is shown, it is not given here.
parameter-measured: pIC50

According to the records, this substance GDAFDKA [GDAFDKA] displays pIC50 of < 3.30

According to the records, this substance GELALKD [GELALKD] displays pIC50 of < 3.30

According to the records, this substance KFCSGHA [KFCSGHA] displays pIC50 of 4.39

According to the records, this substance DVSDLDAD displays pIC50 of < 3.30

According to the records, this substance ACGSDGK [ACGSDGK] displays pIC50 of 4.75

According to the records, this substance DASHGHSG displays pIC50 of < 3.30

* * *

Below, each entry is listed alongside its reported IC50.
system-tested: MPO (Homo sapiens, UniProt P05164)
Construct: purchased Abnova, Taiwan
protocol-text: MPO inhibitor screening assay kit, chlorination assay
Format: biochemical
assay-conditions: APF substrate, synthesized peptides
Where no end group is shown, it is not given here.
The answer is to be given in µM; state only the numeric part.

Answered examples (3):
[
  {
    "substance": "KFCSGHA [KFCSGHA]",
    "endpoint-result": 108
  },
  {
    "substance": "ACGSDGK [ACGSDGK]",
    "endpoint-result": 32.3
  },
  {
    "substance": "DVSDLDAD",
    "endpoint-result": 296
  }
]

Now for the substance whose IC50 we want.
According to the records, this substance GELALKD [GELALKD] displays IC50 of 122
